- target.or.test.system: HLA-DR DRB1*0301 (DR3) (Homo sapiens, UniProt P01903+P01911, A100K/A102G/A103R/A169T/F55Y/I96L/K41T/L162R/M171V/P40S/Q125H/Q178H/Q39Y/R42S/S66N/T106N/T262R/W38E/Y61H)
- Sequence (P01903 26-254 limits assumed, other chains not shown): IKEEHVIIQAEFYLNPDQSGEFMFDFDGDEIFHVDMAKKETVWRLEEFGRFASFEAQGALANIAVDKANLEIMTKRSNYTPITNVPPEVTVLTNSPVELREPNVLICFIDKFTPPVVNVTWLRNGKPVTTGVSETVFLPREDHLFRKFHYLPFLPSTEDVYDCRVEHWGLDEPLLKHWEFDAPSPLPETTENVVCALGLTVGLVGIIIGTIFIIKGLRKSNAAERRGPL
- test.method.notes: biochemical
- Type: binding
pIC50: −log10 of the molar value.

chemical.structure: CC[C@H](C)[C@H](NC(=O)[C@H](Cc1ccc(O)cc1)NC(=O)[C@@H]1CCCN1C(=O)[C@H](CC(=O)O)NC(=O)[C@H](CCC(=O)O)NC(=O)[C@H](CC(C)C)NC(=O)[C@@H](NC(=O)[C@H](C)NC(=O)[C@@H](N)CCC(=O)O)C(C)C)C(=O)N[C@@H](CC(C)C)C(=O)N[C@@H](CC(C)C)C(=O)N[C@H](C(=O)N[C@@H](CO)C(=O)N[C@@H](CO)C(=O)N[C@@H](CCCCN)C(=O)O)C(C)C
pIC50: 6.32
//
chemical.structure: CC(C)C[C@H](NC(=O)[C@H](CCC(N)=O)NC(=O)[C@H](CCC(N)=O)NC(=O)[C@H](CC(C)C)NC(=O)[C@@H](NC(=O)[C@H](CCCNC(=N)N)NC(=O)[C@@H](N)CC(C)C)[C@@H](C)O)C(=O)N[C@@H](Cc1ccccc1)C(=O)N[C@@H](CC(C)C)C(=O)N[C@@H](CO)C(=O)N[C@H](C(=O)N[C@@H](CC(C)C)C(=O)N[C@@H](CO)C(=O)N[C@@H](Cc1ccccc1)C(=O)N[C@H](C(=O)O)C(C)C)[C@@H](C)O
pIC50: 6.10
//
chemical.structure: CSCC[C@H](NC(=O)[C@H](CC(C)C)NC(=O)[C@@H]1CCCN1C(=O)[C@@H](NC(=O)[C@H](CS)NC(=O)[C@H](CC(=O)O)NC(=O)[C@@H](NC(=O)[C@H](CCCNC(=N)N)NC(=O)[C@H](CC(C)C)NC(=O)[C@@H](NC(=O)[C@H](Cc1ccc(O)cc1)NC(=O)[C@@H](N)CC(N)=O)[C@@H](C)O)C(C)C)[C@@H](C)O)C(=O)N[C@@H](Cc1ccc(O)cc1)C(=O)N[C@@H](CO)C(=O)N[C@@H](CC(C)C)C(=O)O
pIC50: 7.35
//
chemical.structure: CSCC[C@H](NC(=O)[C@H](CCC(N)=O)NC(=O)[C@@H](NC(=O)[C@H](Cc1ccccc1)NC(=O)[C@H](C)NC(=O)[C@@H](NC(=O)CN)[C@@H](C)O)C(C)C)C(=O)N1CCC[C@H]1C(=O)N[C@@H](C)C(=O)N[C@@H](Cc1c[nH]cn1)C(=O)NCC(=O)N[C@@H](CC(C)C)C(=O)N[C@@H](Cc1ccccc1)C(=O)N1CCC[C@H]1C(=O)N[C@@H](Cc1c[nH]c2ccccc12)C(=O)O
pIC50: 4.43
//
chemical.structure: CC[C@H](C)[C@H](N)C(=O)N[C@@H](CCCNC(=N)N)C(=O)N[C@H](C(=O)N[C@@H](CC(C)C)C(=O)N[C@@H](CCC(N)=O)C(=O)N[C@@H](CCC(=O)O)C(=O)N[C@@H](CC(C)C)C(=O)N[C@@H](CC(C)C)C(=O)N[C@@H](CCSC)C(=O)NCC(=O)N[C@@H](CO)C(=O)N[C@@H](Cc1ccccc1)C(=O)NCC(=O)N[C@H](C(=O)N[C@H](C(=O)O)C(C)C)[C@@H](C)CC)[C@@H](C)CC
pIC50: 4.50
